Target: anti-estradiol mAb clone 15
Test: Competitive immunoassay: inhibition of binding of labeled E2 (estradiol ovalbumin europium conjugate) to anti-E2 clone 15
Conditions: Table 5; estradiol ovalbumin europium conjugate
Peptide text beside a SMILES is read from it.
Reported IC50 values follow for various compounds
Report only the number, with the unit nM understood.

Use these answered entries as a reference point.
IN: State, in one line, measured IC50 of NCCCC[C@H](N)C(=O)N[C@@H](CO)C(=O)N[C@@H](Cc1c[nH]c2ccccc12)C(=O)N[C@@H](Cc1ccccc1)C(=O)N[C@@H](Cc1ccccc1)C(=O)N[C@@H](CCC(=O)O)C(=O)O [Peptide 19, KSWFFE] (H-KSWFFE-OH; N-terminus and C-terminus assumed)
OUT: 40

IN: State, in one line, measured IC50 of CC(C)C[C@H](NC(=O)[C@H](C)NC(=O)[C@@H]1CCCN1C(=O)[C@@H](N)CC(C)C)C(=O)N[C@@H](CC(=O)O)C(=O)N1CCC[C@H]1C(=O)N[C@H](C(=O)N[C@@H](CCCCN)C(=O)N[C@@H](CCCNC(=N)N)C(=O)N[C@@H](Cc1c[nH]c2ccccc12)C(=O)N[C@@H](Cc1ccccc1)C(=O)N[C@@H](Cc1ccccc1)C(=O)N[C@@H](CCC(=O)O)C(=O)N[C@H](C(=O)N[C@@H](CCCCN)C(=O)O)[C@@H](C)O)[C@@H](C)O [Peptide 1] (H-LPALDPTKRWFFETK-OH; N-terminus and C-terminus assumed)
OUT: 1000

Please turn your attention to the following entry.
IN: State, in one line, measured IC50 of C[C@H](N)C(=O)N[C@@H](CCCNC(=N)N)C(=O)N[C@@H](Cc1c[nH]c2ccccc12)C(=O)N[C@@H](Cc1ccccc1)C(=O)N[C@@H](Cc1ccccc1)C(=O)N[C@@H](CCC(=O)O)C(=O)O [Peptide A-43, ARWFFE] (H-ARWFFE-OH)
OUT: 40
